Hey, just so you know, these numbers are from ChEMBL document CHEMBL4265892.

experiment: Cytotoxicity against […] 3T3 cells assessed as inhibition of cell viability at 50 uM after 48 hrs by MTT assay; assay type: cell-based; settings: read-out: INH
attribute.measured: cytotoxicity at 48 h, 50 µM (%)
Write the number in % without appending the unit.

> print(dat)
                                   compound           attribute.measured  reported.result
1                   CCCN1CN(CC(=O)OC)CSC1=S  cytotoxicity at 48 h, 50 µM             36.9
2                    CCCN1CN(CC(=O)O)CSC1=S  cytotoxicity at 48 h, 50 µM             56.6
3  C[C@@H]1C[C@@H]([C@H](O)CC2CC(=O)NC(=O)C2)C(=O)[C@@H](C)C1 [CYCLOHEXIMIDE]  cytotoxicity at 48 h, 50 µM               66

Then this compound:
[ask] What value of measured cytotoxicity at 48 h, 50 µM is listed for COc1ccc(CN2CN(CC(=O)O)CSC2=S)cc1OC ?
[reply] 86.8
